test system: MS2 coat protein; assay: apparent KD of MS2 coat protein; designed switch direction (-1 OFF switch, 1 ON switch): -1; higher = weaker reporter binding; settings: Eterna round: R95; input ligand: microRNA oligo, concentration not stated
Please note: 1 (yes) applies when apparent KD of MS2 coat protein is 0.05 µM or greater, and 0 (no) applies otherwise.

These solved cases illustrate the format of a correct answer.
| sequence-string | category-label |
| --- | --- |
| AGAUGUAGAUUCCGAUCCUACAUGAGGAUCACCCAUGUAGCUAGACGUGCGGGCGGCGCUCGUCGGACUACCAGUAG [salish99_TOv1_r3_096] (puzzle: Sensor v3, turn-off variant 1) | 1 (yes) |
| CUUUUGUGAGGAUAUCAGUAGUAAAAAAAUAUAAUUACUACUGAGAAGGCACAUGAGGAUCACCCAUGUUCCUC [salish99_ex4_r3_023] (puzzle: Exclusion 4) | 0 (no) |
| AUCAUGUAAGGAUAUCUUACAUGUGACGAAAGUCACAGUUAAGAGAAGGUACAUGAGGAUCACCCAUGUAUAAC [Ex4-3: 36] (puzzle: Exclusion 4) | 0 (no) |
| CUCAUGUGAGGAUAUGUGAUCUGCUUUCUGUGUAGAUGAUCACAGAAGGCACAUGAGGAUCACCCAUGUAGAUC [Ex4 - 3 - 28] (puzzle: Exclusion 4) | 1 (yes) |
| AAAACUGAAGGAUAUGCCAGGGUGAGAGCUGGUGACGUUUAACAUGAGGAUCACCCAUGUAGAAGGUCAAAACA [Usate] (puzzle: Exclusion 2) | 0 (no) |

Exercise: hey, is apparent KD of MS2 coat protein for this one >= 0.05 µM? UUUGUUGUUGUGAGGAUAUCGUAGUUAUUUUGUAACGAGAAGGCACAUGAGGAUCACCCAUGUUUUUUGAUGGU [JR_BMOE4_Sub063] (puzzle: Brourd's mod of Exclusion 4)
Solution: 0 (no)

Exercise: Moving on to the next sequence: AGCAUGCUAGGAUAUACGGGACAUUAGGGUUCGUUGUGUGGACAUGAGGAUCACCCAUGUAGAAGGAGCGUGCA [Mat - Exclusion 2 - Mod of Hyphema - D91] (puzzle: Exclusion 2)
Solution: 1 (yes)

Exercise: Consider next the sequence UUUUAACAUGAGGAUCACCCAUGUGAGGAUAUCGAAAUUUAUAUUAAUAUUAAUAAUACGAGAAGGCACAUUUU [JMF 22] (puzzle: Exclusion 1) in the same way.
Solution: 1 (yes)

Exercise: Next up: AAAAUGUGAGGAUAUCAGGUGUGCUAGCGAACUGGUACAUCUGAGAAGGCACAUGAGGAUCACCCAUGUUCCUU [Mat - Exclusion 4 - Mod of JL - D51] (puzzle: Exclusion 4)
Solution: 0 (no)

Exercise: Now this one: GAAAGGGUAGGAUAUACGAAAAAAAAGGGUAGAAAAAAAACACAUGAGGAUCACCCAUGUAGAAGGACCAAAAG [salish99_ex2_r3_033] (puzzle: Exclusion 2)
Solution: 0 (no)

Exercise: Entry AAGAAACAUGAGGAUCACCCAUGUGAGGAUAUGAAAAAGAAAAGAAAAGAAAGAAGACUCAGAAGGCACAAAGG [salish99-ex1_r3_022] (puzzle: Exclusion 1) please
Solution: 0 (no)

Exercise: And UCUAGCUUUUUGCGUCAAGCAUUGAAGUCUGUGAUCGUUACAUGAGGAUCACCCAUGUAUGUUUUAUGUCGUCUUGU [JR_SV3TOV2_Sub099] (puzzle: Sensor v3, turn-off variant 2) ?
Solution: 0 (no)

---

Measured apparent KD of MS2 coat protein, listed per entry.
system: MS2 coat protein; assay: apparent KD of MS2 coat protein; higher = weaker reporter binding; settings: Eterna round: R107; input ligand: arginine 13.2 mM
Reply with the number and its unit after it.

| sequence-string | apparent KD of MS2 coat protein |
| --- | --- |
| ACAUGAGGAUCACCCAUGUAGCCUAGGGAAGGAGCGGCGUAAGAGCCAGGUAGGUCGCCCGCAUGAGGAUCACCCAUGUCGAGGG [Same State Arginine A GF10] | 30.9 nM |
| CGGUUUGUGAUGGAUACCAGCAGAGAAAAUGUUUAUCCUGACAUGAGGAUCACCCAUGUGUGCCCUUGGCAGCUGUUGUGGGCUG [8.X] | 57.3 nM |
| GGUGGGACUUGUGAUACCAGCCCAGUUCUAAUCGAACUGCACAUGAGGAUCACCCAUGUCGGCCCUUGGCAGCAUGAGUAUUUAU [Esceesor] | 146 nM |

Exercise: apparent KD of MS2 coat protein lookup needed for UGGGUAGCAUAGCUUGAUAGCUACACUGAAGGAGCGAGGAUAACCUCAGGUAGGUCGCAGACAUGAGGAUCACCCAUGUAGAUGG [Same State Arginine A GF18] , thanks.
Solution: 63.9 nM

Exercise: Next sequence: CCAUAGCUAGGAAGGAGCGCAUACUUCACAUGAGGAUCACCCAUGUCGAGACGUGAGUCAGUGCAGGUAGGUCGCCUAGCUAUGG [Same State - Arginine B (Freestyle 29)]
Solution: 18.1 nM

Exercise: Now this one: UAUCGUCAGACGGCCGCCACUAGAACAUGAGGAUCACCCAUGUAAGUGGCUGGUUCAUGGGUGUCUAGGACCGGGUCUGACGAAU [(Trp1)-(Ms2)-(T)'-(M)'-(Trp2)_Design20]
Solution: 14.8 nM

Exercise: Lookup UUAGUAACGACGGCCGCCACUGGAUAUGAACAUGAGGAUCACCCAUGUAGAGAUCCUAGAAUAAACAGGACCGGGUCUGAUAAUA [Exclusion Tryptophane B GF 2]
Solution: 17.9 nM

Exercise: Thanks! And CGGACAUGAGGAUCACCCAUGUCGUCGACGCGAGGACCGGUACGGCCGCCACUCGCAUGCCAAUGAGCGCAUGCGGCCUGGGUAU [Exclusion Tryp A GF5] ?
Solution: 15.8 nM

---

tested on: K4 kissing-loop RNA reporter; assay: apparent KD of K4 kissing-loop reporter; higher = weaker reporter binding; settings: Eterna round: R107; input ligand: FMN 200 uM;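 note: bound reporter read as fluorescence of individual clusters on recovered sequencing chips by microscopy, with normalized cluster intensities fitted with a binding model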
Bucketed by reported apparent KD of K4 kissing-loop reporter, buckets being range A = under 100 nM, range B = from 100 nM up to 400 nM, range C = 400 nM and over

| sequence-string | category-label |
| --- | --- |
| AUUUAGACGAGUGAUGUUCGUGAUUUUUCAGAGGAUAUGCGUAAUAGCAGAAGGCUGUAUUUAUAUAUAUUUUGAUUUUUUUAAA [JR_ExcFMNA_Sub009] | range A |

Exercise: Classify this sequence: AGUGUUGUAUGGCGGUUUGUCACUUAGGAUCAGGAUAUAUAAACAAAUAGAAGGGAUGGCGGAGUGAUGUUCCGCCGGCCGCCAU [FMN A Exl V7]
Solution: range B

Exercise: What would you report for GGGAGUAGUGCGGCCGCCACUGUGAAAGUAGAAGAAUAUAGUGAUGUUAUAUAGGAAUAAAAGAAUAGGACCGGGCAUUAGAUUU [SSTRyptB.V] ?
Solution: range B

---

system: MS2 coat protein; assay: apparent KD of MS2 coat protein; higher = weaker reporter binding; conditions: Eterna round: R107; input ligand: theophylline 20 uM
Label criterion met when apparent KD of MS2 coat protein is at or above 0.06 µM; anything below gets criterion not met.

| sequence-string | category-label |
| --- | --- |
| UAUAUAUAUAGUGAUACCAGCAGAGAAAACGUUUAUCCUAACAUGAGGAUCACCCAUGUAUGCCCUUGGCAGCGUUAUAUAUAUA [8.E] | criterion not met |
| CGGUUUGUGAUGGAUACCAGCAGAGAAAAUGUUUAUCCUGACAUGAGGAUCACCCAUGUGUGCCCUUGGCAGCUGUUGUGGGCUG [8.X] | criterion met |
| UGACAUGAGGAUCACCCAUGUUUAGAUGAACGAGGACCGGUACGGCCGCCACUCGAUAAGUGGAAAGAGCGAGGGAUCGCAUGCU [Same State Trp A GF5] | criterion not met |
| UAUAUAUAUAUUGAUACCAGCAGAGAAAACAUAUAUCCUAACAUGAGGAUCACCCAUGUAUGCCCUUGGCAGCGAUAUAUAUAUA [8.A] | criterion not met |

Exercise: Identify whether the reported apparent KD of MS2 coat protein of the following sequence is 0.06 µM or greater: ACUAGUUGUGCAGAUACCAGACAUGAGGAUCACCCAUGUUUGGGAUCUAAUGAUCAUCCUGUCCCUUGGCAGCUGUACAUCUAGA [Omei Theo B Exc v2]
Solution: criterion met

---

Reported apparent KD of MS2 coat protein values for the following sequences.
system: MS2 coat protein; experiment: apparent KD of MS2 coat protein; designed switch direction (-1 OFF switch, 1 ON switch): -1; higher = weaker reporter binding; conditions: input ligand: none
Reply with just the number (in nM).

Exercise: I would be grateful if you could share the reported apparent KD of MS2 coat protein for UGCUGAGUUGACAGUGGUAACAUGAGGAUCACCCAUGUAUGUUUGUGCUUAAGCGGGUUGUUUCUUGUUCGUCUCUC [Eternabot (L2) Solution 5] (Eterna round: R97, puzzle: Sensor, turn-off variant 1) .
Solution: 349

Exercise: Please do the same for UUUACAAGCUAUUGAUCCCACAUGAGGAUCACCCAUGUUCCUGGCCGUGAGGCUAGGUAAACAAUUGCUCGUCUUAU [JL TOV1 3.69] (Eterna round: R97, puzzle: Sensor, turn-off variant 1) as well.
Solution: 1370

Exercise: # iterate: UUAUAGGCAGGAUAUACAUGAGGAUCACCCAUGUAAAUUUUUCGUUUAACUUGAAUGUGUAGAAGGGCCAUAUU [Ex3 #57] (Eterna round: R97, puzzle: Exclusion 3)
Solution: 21.6

Exercise: Query GGAUUGUCAGGAUAUCUUAUACUUCAUAAGUGAGGAUAAAUAGAGAAGGGACAUGAGGAUCACCCAUGUAAUAA [Exclusion 4 S1] (Eterna round: R97, puzzle: Exclusion 4) next
Solution: 36.8

Exercise: Next: AGUCGGCGAGGAUAUACAUGAGGAUCACCCAUGUGAGAGAAUAAAGUGAGUUAGACAAGUAGAAGGCGCUGACA [JL Lego Mod 10] (Eterna round: R96, puzzle: Exclusion 3)
Solution: 48.1

Exercise: Item: CUUUCGUCUGUGGGUGGUGACAUGAGGAUCACCCAUGUUUUGCUCGUUUUGUCUUGGGCUCGGCGCCCGGGUUCGGG [-25.2, -46.4, A 8%] (Eterna round: R97, puzzle: Sensor, turn-off variant 1)
Solution: 872

Exercise: Another sequence: UUAAUUAAUGUCAGGAUAUCUAGAGCUUCGGCUCUAGAGAAGGGACAUGAGGAUCACCCAUGUCACUCUUAAUU [BmEx4/3-C1] (Eterna round: R97, puzzle: Brourd's mod of Exclusion 4)
Solution: 15.1

Exercise: Note, next up: AACAGUCUAGAGGAUAUGUGGGAUUAAUAUCUUGCAGAAGGCUGGACAUGAGGAUCACCCAUGUAAAUACUACC [Omei Ex6 A15] (Eterna round: R97, puzzle: Exclusion 6)
Solution: 32.9

Exercise: Param item: UACAUGAGGAUCACCCAUGUUUUGUCGUGUAUGGUAUUUAUCUAGGAUAUCAAUCUAAUUAUUUAUGAGAAGGAGAAUAUUAAU [JMF's solution 50] (Eterna round: R96, puzzle: Exclusion NG 3)
Solution: 42.4

Exercise: Now give it for AAUCCUGAAGUUAGGAUAUGAAGUAUCACUGCACUUCAGAAGGGACUUGAGGAUCACCCAAGUAGCCGUGAGGC [jl-bmx4.4.61 ViennaUCT mod] (Eterna round: R97, puzzle: Brourd's mod of Exclusion 4) too.
Solution: 35.6

Exercise: // same read-out, input: CAGGAGUCAGGAUAUCGUUACCACGGAGUUGCUGUGCAUAACGAGAAGGGACAUGAGGAUCACCCAUGUGCCUC [Eternabot (L1) Solution 98] (Eterna round: R97, puzzle: Exclusion 4)
Solution: 22.3
